# reported growth inhibition; entries follow
# protocol summary: NCI Yeast Anticancer Drug Screen. Data for the bub3 strain (AID 167)
# settings: S. cerevisiae bub3 mutant strain, at 50.0 µM, stronger effect = higher value
Compounds without any hit were thinned out: in the full panel of roughly 79,000, 15% have a hit.

# compound, growth inhibition [%]
data = [
    ("O=C/C(=C(/Br)I)c1ccccc1", 8.7),
    ("COC(=O)/C=C/c1ccc2c(c1)CCC2", 31.7),
    ("CSc1nc2c(c(=O)n1C)N=C(c1ccc([N+](=O)[O-])cc1)CC(c1ccccc1)N2 (stereo not given)", 18.1),
    ("Cc1cccc(NC(=O)c2ccc(Cl)cc2Cl)n1 (tested in a mixture with another compound)", 4.05),
    ("CCCCCCCCCCCCCCCCCCC(CO)CO", -10.2),
    ("Cc1ccc(C(=O)c2ccccc2Cc2cccc3ccccc23)c(C)c1", 12.6),
    ("COC(=O)c1nc(N)nc(C(=O)OC)c1C(=O)C(C)(C)C", -41.6),
    ("ON=C1c2cc(Cl)ccc2-c2ccc(Cl)cc21", 5.45),
    ("CNc1c([N+](=O)[O-])cc2[nH]c(C)nc2c1[N+](=O)[O-]", 0.95),
    ("Cc1cc(=O)[nH]c(NN2C(Cl)C(=O)C2c2cccc([N+](=O)[O-])c2)n1 (stereo not given)", -7.45),
    ("C/C(CC(C)(C)C)=N/NS(=O)(=O)c1ccc(C)cc1", 5.45),
    ("c1ccc2c(CN3CCCCC3)cccc2c1", -15.2),
    ("O=C1/C(=C/c2ccccc2)CN(C(=O)Oc2ccccc2)C/C1=C\\c1ccccc1", -7.05),
    ("O=C1C2C3CCC(C3)C2C(=O)C2C3CCC(C3)C12 (stereo not given)", 8.75),
    ("CCCCCCn1c(=O)cc2n(c1=O)CCC2", 3.5),
]

---

# protocol summary: NCI Yeast Anticancer Drug Screen. Data for the bub3 strain (AID 167)
# settings: S. cerevisiae bub3 mutant strain, at 50.0 µM, stronger effect = higher value
# Experimental: Growth inhibition of yeast strains with defined genetic alterations is measured as a screen for potential anti-cancer activity. Selected strains with alterations in DNA damage repair or cell cycle control were exposed to compounds and growth inhibition was measured relative to vehicle treated controls. The strain used in this assay is bub3
Compounds without any hit were thinned out: in the full panel of roughly 79,000, 15% have a hit.
# reported growth inhibition; entries follow

# molecule, growth inhibition, %
records = [
    ("COC(=O)c1ccc(Cn2ccc(=O)n(Cc3ccc(C(=O)OC)cc3)c2=O)cc1", 31.3),
    ("Cc1ccc(-c2nc3ccccc3c(=O)n2/N=C/c2ccc(Cl)cc2Cl)cc1", 7.35),
    ("Clc1ccc(-c2nnc(-c3ccc4ccccc4c3)o2)cc1", -47.5),
    ("CC1CNC(=O)C(=O)N1 (stereo not given)", -10.9),
    ("COc1ccc(NC(=O)c2cc3cc(N=Nc4ccc(Br)cc4)ccc3oc2=O)cc1", -28.5),
    ("C[C@H](C(O)CC(=O)C(C)(C)O)[C@H]1CC[C@@]2(C)[C@@H]3CC[C@H]4C(C)(C)[C@@H](OC5OC(COC6OC(CO)C(O)C(O)C6O)C(O)C(O)C5O)CC[C@]4(C)C3=CC[C@]12C (stereo not given in full)", -23.4),
    ("CCSC(SCC)C(NC(C)=O)C(O)C(O)COC(=O)c1ccccc1 (stereo not given)", 1.35),
    ("Cn1c(=O)c2snnc2n(C)c1=O", 2.9),
    ("CCCC1(O)c2ccccc2-c2ccccc21", 26.4),
    ("CNCCCC1c2ccccc2C=Cc2ccccc21", 0.15),
]

---

# protocol summary: NCI Yeast Anticancer Drug Screen. Data for the sgs1 mgt1 strain (AID 161);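 also: 0% = growth of cultures given vehicle only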
# settings: S. cerevisiae sgs1 mgt1 strain, at 50.0 µM, stronger effect = higher value
This is part of a sample that, as a whole, favours compounds with a hit. Of some 79,000 tested, about 15% had one in any assay.
Quick reference for growth inhibition among some compounds

# compound, growth inhibition (%)
records = [
    ("Cc1cc(CN(C)C)cc(C(C)C)c1O", -12),
    ("CCCCCCC(O)CC[C@H]1CCC[C@@H](C)N1 (stereo partly drawn)", 39.5),
    ("CC(C)(C)N/N=C(\\C(=O)Nc1cccc(Cl)c1)C1C(=O)Nc2ccccc2S1=O (stereo not drawn)", -24.6),
    ("CCc1sc(N)nc1-c1ccccc1", 7.05),
    ("CSC(=Nc1ccc([N+](=O)[O-])cc1C#N)NC(=O)c1ccccc1", -29.1),
    ("CC1(C)OP2(O)(OC(C)(C)c3ccccc32)c2ccccc21", 12.3),
    ("Cc1ccccc1NC(=O)Oc1ccc2c(C)cc(=O)oc2c1", 14.4),
    ("O=C(O)c1cc(Cl)ccc1[N+](=O)[O-]", 5.5),
    ("O=C1CCC(N2C(=O)C3C4CCC(O4)C3C2=O)C(=O)O1 (stereo not drawn)", 13.9),
    ("CCCCCCCCCC(C)=O", -16),
    ("COC1CCC(C(C)(C)C)CC1 (stereo not drawn)", 0.15),
    ("Cc1cc2c(cc1Cl)SC(NNc1ccc([N+](=O)[O-])cc1)=NS2(=O)=O", 4.6),
    ("CC(=O)OC(C)C(C)Br (stereo not drawn)", -9.35),
    ("COP(=O)(O)OP(=O)(O)OC", 25.2),
    ("CC1=Nc2c([nH]c(=S)[nH]c2=O)NC(c2c(Cl)cccc2Cl)C1 (stereo not drawn)", 14.2),
    ("Cc1cc[n+](-c2nc3c([O-])n(C)c(=O)n(C)c-3n2)cc1", 6),
    ("CCC(C)C(NCc1ccccc1)C(=O)O (stereo not drawn)", 26.9),
    ("COc1cccc(/C=C2\\CCC(C)(CN(C)C)C2=O)c1 (stereo not drawn)", 38.9),
    ("O=C1CSC(c2ccco2)N1CCN1C(=O)CSC1c1ccco1 (stereo not drawn)", -12.7),
    ("Cc1ccc(S(=O)(=O)OC2COC3C2OC2OC(C)(C)OC23)cc1 (stereo not drawn)", 0.2),
    ("O=S(=O)(Cc1c[nH]c2ccccc12)c1ccccc1", 31.1),
    ("O=C1NCC2(CCN(CC3COc4ccccc4O3)CC2)N1c1ccccc1 (stereo not drawn)", -21),
    ("Cc1ccc2nc(CC(=O)c3ccccc3)c(CC(=O)c3ccccc3)nc2c1", 2.25),
    ("CC(C)=C1CC(=O)NC1=O", -3.2),
    ("CCOC(=O)NC(C(N)=O)C(N)=O", -1.6),
    ("CCC(C)C(N=C1N=CNC2=NC=NC12)C(=O)O (stereo not drawn)", -2.6),
    ("CS(=O)(=O)C(C#N)c1nc2ccccc2nc1Cl (stereo not drawn)", -53.1),
    ("O=C(OC1CCC(c2ccccc2)C1)c1cc([N+](=O)[O-])cc([N+](=O)[O-])c1 (stereo not drawn)", 29.4),
    ("CCOC(=O)OCCOCCOC(=O)OCC", -30.8),
    ("Cc1cc(C(c2ccccc2)c2cc(C)cc(C(C)(C)CC(C)(C)C)c2O)c(O)c(C(C)(C)CC(C)(C)C)c1", -10),
    ("COC(=O)C1CCC(=O)N1CN(C(C)=O)c1ccccc1 (stereo not drawn)", -14.1),
    ("CCNc1ccc(Cl)cc1[N+](=O)[O-]", 11.9),
    ("CNC(=O)c1ccccc1Cl", 10.8),
    ("CC(=O)OC(C)C1(C)CCC2CCCC(C)(C)C2C1 (stereo not drawn)", -11.9),
    ("O=c1cc(CNC2CC3CCC2C3)[nH]c(=O)[nH]1 (stereo not drawn)", -4.25),
    ("CC(=O)NNc1nc(C)c(C(/C=C/c2ccccc2O)=N/NC(=O)c2ccncc2)s1", 16.1),
    ("O=C(/C=N/O)Nc1ccccc1I", 20.4),
    ("Cc1cc(SCC(=O)c2ccccc2)nc2ccccc12", -8.85),
]

---

# protocol summary: NCI Yeast Anticancer Drug Screen. Data for the bub3 strain (AID 167)
# settings: S. cerevisiae bub3 mutant strain, at 50.0 µM, stronger effect = higher value
Compounds without any hit were thinned out: in the full panel of roughly 79,000, 15% have a hit.
measure name: growth inhibition (%)

# compound, number
rows = [
    ("COc1ccc2nc(NC(=O)C(=O)NNC(=O)c3ccncc3)sc2c1", -22.9),
    ("O=c1[nH]c(=O)n(COCc2ccccc2)c2ccccc12", 37.7),
    ("CN(C)c1ccc(/C=N/NC(=O)c2ccccc2NC(=O)c2ccccc2)cc1", 14.9),
    ("CC1(C#N)CCCC(c2ccccc2)(c2ccccc2)C1=O (configuration not stated)", 23.9),
    ("CCOC(=O)Cc1nc(Cl)c2c(C)c(C)sc2n1", 24.9),
    ("CSc1nc(NC2OC(CO)C(O)C(O)C2O)c(C=O)c(=O)n1C (configuration not stated)", 2.45),
    ("Cc1ccc(NC(=S)Nc2ccccc2C)nc1", 2.6),
    ("Cc1cccc(N=NC2Sc3nc4ccccc4n3C2=O)c1 (configuration not stated)", 2.25),
    ("NC(=S)NNC(=O)c1ccncc1", 3.75),
    ("OCC1OC(n2cnc3c(NCc4ccccc4)ncnc32)C(O)C1O (configuration not stated)", 11.6),
    ("CCC/C(=N/O)C(=O)OCC", 4.4),
    ("Cc1ccc(S(=O)(=O)OC(c2ccc(Cl)cc2)C(F)(F)F)cc1 (configuration not stated)", 3.45),
    ("CC(C)CC(Nc1ccc2ccccc2c1)C(N)=O (configuration not stated)", 10.8),
    ("Cn1cnc2c(Oc3ccc(Cl)cc3)ncnc21", -22.7),
    ("Nc1ccc(C2NC=CN2)cc1", -3.15),
    ("CC1=Nc2ccccc2S/C1=C(/C)NN", 1.8),
    ("CCCCCC(C)C(C#N)C(=O)OCC (configuration not stated)", -18.9),
    ("O=C1NC(=O)C2C3CCC(C3)C12 (configuration not stated)", 4.65),
    ("OCC(O)CS (configuration not stated)", -4.5),
    ("C/C=C\\COC(=O)CC(C)=O", -26.3),
    ("CCN(CC)CCCC(C)Nc1nccc(/C=C/c2ccc(Cl)cc2)n1 (configuration not stated)", 14),
    ("COC(=O)C1=C(C)C(=O)[C@]23C(CCCC[C@H]12)C(=O)[C@H](C(=O)OC)C3C (some centres not stated)", -13.9),
    ("O=C1c2ccccc2-c2cc(Br)c(NC(=O)C3CCCCC3C(=O)O)cc21 (configuration not stated)", -1.2),
    ("c1ccc2[nH]c3[nH]c4[nH]c5ccccc5[nH]c4[nH]c3[nH]c2c1", -8.5),
    ("CCOC(=O)c1ccc(NCc2nc3ccccc3nc2C)cc1", 1.95),
    ("O=C(O)/C(=C\\c1ccccc1[N+](=O)[O-])c1ccc(Cl)cc1", -8.95),
    ("Nc1c(C(=O)O)cccc1C(=O)O", 4.1),
]

Source listed as PubChem BioAssay (NCI).
